Reported values of Activity for individual entries
Tested on: Ishikawa
Experiment: Anticancer activity against human Ishikawa cells assessed as cell mortality rate at 600 uM measured after 48 hrs by MTT assay relative to control
Type: functional

{"molecule": "OB(O)c1ccc(/C=N/c2ccc(-c3ccc(/N=C/c4ccc(B(O)O)cc4)cc3)cc2)cc1", "experimental-target": "Ishikawa", "Activity": "14%"}
{"molecule": "CC(C)CC(/N=C/c1cccc(B(O)O)c1)C(=O)O (centres undefined)", "experimental-target": "Ishikawa", "Activity": "88.3%"}
{"molecule": "O=C(O)CN=C(/N=C/c1ccc(B(O)O)cc1)/N=C/c1ccc(B(O)O)cc1", "experimental-target": "Ishikawa", "Activity": "18%"}
{"molecule": "CC(C)CC(/N=C/c1ccc(B(O)O)cc1)C(=O)O (centres undefined)", "experimental-target": "Ishikawa", "Activity": "76%"}

These data points were gathered from ChEMBL document CHEMBL5532750.
